Tested on: human SMAD7 mRNA
Assay explanation: Dose-dependent inhibition of human SMAD7 mRNA expression in Hep3B cells (Example 3, Study 1 and 2)
Format: cell-based
Condition label: 5000.0 nM, electroporation, approximately 16 hours, Study 1
Strand notation (5' to 3'): a small letter for the sugar, then the base; units joined by * are phosphorothioate-linked, units joined directly phosphodiester-linked; [ ] holds rarer units or linkages, { } end groups; capitals alone tell only the bases. e = 2'-O-(2-methoxyethyl) (MOE); [5mC] = 5-methylcytosine; d = 2'-deoxy (DNA)
For each of the substances below, state its % inhibition of SMAD7 mRNA expression.
Write down the numeric answer in % and omit the unit.

Requested read-out: % inhibition of SMAD7 mRNA expression. Entry: 771711 (antisense e[5mC]*eG*e[5mC]*eA*e[5mC]*dT*dT*d[5mC]*dA*d[5mC]*dA*dG*dT*dT*d[5mC]*eA*e[5mC]*eA*eG*eG) [compound 771711] 27

Moving on to the next substance: 771782 (antisense eT*eA*eG*eG*eA*d[5mC]*dT*dG*dG*dA*dA*dG*dA*dG*d[5mC]*eT*eT*eT*eG*eG) [compound 771782] 27

Moving on to the next substance: 771777 (antisense e[5mC]*e[5mC]*e[5mC]*eT*e[5mC]*dA*dG*dT*d[5mC]*dT*d[5mC]*dA*dG*dA*dT*eA*eA*e[5mC]*eA*eG) [compound 771777] 27

Moving on to the next substance: 771885 (antisense e[5mC]*eA*eA*eG*eT*d[5mC]*dT*d[5mC]*dT*dT*dA*d[5mC]*d[5mC]*dT*d[5mC]*eA*e[5mC]*e[5mC]*e[5mC]*eA) [compound 771885] 20

Moving on to the next substance: 771762 (antisense eG*eT*e[5mC]*eA*e[5mC]*d[5mC]*dA*d[5mC]*d[5mC]*dG*dA*dT*dG*d[5mC]*dA*eT*e[5mC]*e[5mC]*eA*eA) [compound 771762] 38

Moving on to the next substance: 771794 (antisense eG*eA*eA*eG*e[5mC]*dA*dA*dG*dT*d[5mC]*dA*d[5mC]*dT*dG*d[5mC]*e[5mC]*eT*eT*e[5mC]*eT) [compound 771794] 27

Moving on to the next substance: 771820 (antisense eG*eG*eT*e[5mC]*eA*dA*dA*d[5mC]*dT*dT*dG*dT*dG*dG*dT*eA*eA*eA*eA*eT) [compound 771820] 7

Moving on to the next substance: 771574 (antisense e[5mC]*eG*e[5mC]*eT*eT*dG*dG*dG*dA*d[5mC]*dT*dG*d[5mC]*dA*dA*eA*e[5mC]*e[5mC]*eT*e[5mC]) [compound 771574] 36

Moving on to the next substance: 771822 (antisense e[5mC]*eA*e[5mC]*e[5mC]*eA*dA*dA*dA*d[5mC]*dA*dA*dG*dT*dG*dT*e[5mC]*eT*eA*e[5mC]*e[5mC]) [compound 771822] 30

Moving on to the next substance: 771821 (antisense eG*eT*eT*e[5mC]*e[5mC]*dT*dT*dA*dT*dA*dG*dA*dT*dT*dA*eT*e[5mC]*e[5mC]*eA*eA) [compound 771821] 27

Moving on to the next substance: 771788 (antisense e[5mC]*e[5mC]*eA*eA*e[5mC]*dT*d[5mC]*dT*dG*dA*dA*d[5mC]*dG*dG*dA*eA*eA*eG*eA*eA) [compound 771788] 0

Moving on to the next substance: 771583 (antisense eT*eG*e[5mC]*eT*e[5mC]*d[5mC]*dT*dG*dG*d[5mC]*dA*dG*d[5mC]*dT*dG*e[5mC]*eT*eG*eG*eG) [compound 771583] 36

Moving on to the next substance: 771387 (antisense eA*eG*e[5mC]*eA*eT*d[5mC]*dT*dG*dG*dA*d[5mC]*dA*dG*dT*d[5mC]*eT*eG*e[5mC]*eT*eG) [compound 771387] 28

Moving on to the next substance: 771734 (antisense e[5mC]*eT*e[5mC]*eA*eA*dA*d[5mC]*d[5mC]*dT*dT*dT*d[5mC]*dA*dG*dA*e[5mC]*e[5mC]*eA*eT*e[5mC]) [compound 771734] 30

Moving on to the next substance: 771386 (antisense e[5mC]*eT*eG*eG*eA*d[5mC]*dA*dG*dT*d[5mC]*dT*dG*d[5mC]*dT*dG*eT*eG*eG*eA*eT) [compound 771386] 25

Moving on to the next substance: 771439 (eG*eG*e[5mC]*eT*eG*d[5mC]*dG*d[5mC]*dG*d[5mC]*d[5mC]*dG*dG*d[5mC]*dG*eG*eG*e[5mC]*eG*e[5mC]; antisense) [compound 771439] 49

Moving on to the next substance: 771581 (antisense eG*eG*eG*eA*e[5mC]*d[5mC]*d[5mC]*d[5mC]*dA*dG*d[5mC]*d[5mC]*dG*d[5mC]*d[5mC]*eA*eG*e[5mC]*eT*eT) [compound 771581] 9

Moving on to the next substance: 771732 (antisense eG*eT*e[5mC]*eA*eT*dG*dT*dG*dA*dA*d[5mC]*dA*d[5mC]*dT*d[5mC]*eT*eT*eT*e[5mC]*eA) [compound 771732] 39

Moving on to the next substance: 771479 (antisense eG*eG*eG*eA*eA*d[5mC]*dA*d[5mC]*d[5mC]*dT*dT*dG*dT*dG*dT*eA*e[5mC]*e[5mC]*eA*eA) [compound 771479] 49

Moving on to the next substance: 771671 (antisense eT*e[5mC]*eA*eG*eG*dA*dG*dT*d[5mC]*d[5mC]*dT*dT*dT*d[5mC]*dT*e[5mC]*eT*e[5mC]*eT*e[5mC]) [compound 771671] 27

Moving on to the next substance: 771345 (antisense eA*e[5mC]*eA*eG*e[5mC]*dA*dT*d[5mC]*dT*dG*dG*dA*d[5mC]*dA*dG*eT*e[5mC]*eA*eG*eT) [compound 771345] 49

----------
For each of the substances below, state its Levels of IL-6.
System: human peripheral blood mononuclear cells (PBMCs)
Assay explanation: Human PBMC activation assay, cytokine levels (IL-10, IL-6, MCP-1, TNF-α) in supernatant after 24 hours (Example 9)
Condition label: human PBMC supernatant after 24 hours; 0.32 μM oligonucleotide
Write down the numeric answer in pg/mL and omit the unit.

Requested read-out: Levels of IL-6. Entry: 829994 (GGAGGCAGGGCCGCGA; 3-10-3 cEt gapmer, further chemistry not given here) [compound 829994] 4.5

Moving on to the next substance: 830037 (antisense CTATTGGCTGATCTGG; 3-10-3 cEt gapmer, further chemistry not given here) [compound 830037] 26.7

Moving on to the next substance: 736697 (antisense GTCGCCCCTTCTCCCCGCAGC; chemistry not fully specified) [compound 736697] 12.3

Moving on to the next substance: 790615 (CCAATGAGAATGCTTC; 3-10-3 cEt gapmer, further chemistry not given here) [compound 790615] 6.5

Moving on to the next substance: 798781 (CGTAAGATTCACAGCA; 3-10-3 cEt gapmer, further chemistry not given here) [compound 798781] 6.9

Moving on to the next substance: 830025 (antisense TTTGTAAATCGAAAGC; 3-10-3 cEt gapmer, further chemistry not given here) [compound 830025] 5.0

Moving on to the next substance: 830121 (AGAATCAAGCCCTGGC; 3-10-3 cEt gapmer, further chemistry not given here) [compound 830121] 4.4

----------
System: human SMAD7 mRNA
Assay explanation: Antisense inhibition of human SMAD7 mRNA expression in Hep3B cells by 5-10-5 MOE gapmers, single concentration, electroporation, RT-PCR (Example 1, Study 1 and 2)
Format: cell-based
Condition label: electroporation, 15,000 nM antisense oligonucleotide (Study 2), 5-10-5 MOE gapmers targeting SEQ ID NO: 1 and 2
Strand notation (5' to 3'): a small letter for the sugar, then the base; units joined by * are phosphorothioate-linked, units joined directly phosphodiester-linked; [ ] holds rarer units or linkages, { } end groups; capitals alone tell only the bases. e = 2'-O-(2-methoxyethyl) (MOE); [5mC] = 5-methylcytosine; d = 2'-deoxy (DNA)
For each of the substances below, state its % inhibition of SMAD7 mRNA expression.
Write down the numeric answer in % and omit the unit.

Requested read-out: % inhibition of SMAD7 mRNA expression. Entry: 771800 (antisense eG*eA*e[5mC]*eA*eG*d[5mC]*dA*dG*dA*d[5mC]*dA*dG*dG*d[5mC]*dA*eA*eA*eA*eT*eG) [compound 771800] 12

Moving on to the next substance: 771427 (e[5mC]*e[5mC]*eT*e[5mC]*eG*d[5mC]*dA*d[5mC]*d[5mC]*dG*d[5mC]*d[5mC]*dT*dT*dG*e[5mC]*e[5mC]*e[5mC]*eA*eG; antisense) [compound 771427] 36

Moving on to the next substance: 771442 (e[5mC]*eT*e[5mC]*eT*eT*dG*dA*d[5mC]*dT*dT*d[5mC]*d[5mC]*dG*dA*dG*eG*eA*eA*eT*eG; antisense) [compound 771442] 22

Moving on to the next substance: 771841 (antisense eT*eT*eT*eA*eG*dA*dA*dA*d[5mC]*d[5mC]*d[5mC]*dA*dG*dA*dG*eA*e[5mC]*eA*eA*eA) [compound 771841] 36

Moving on to the next substance: 771530 (antisense eA*eA*eA*eA*eA*d[5mC]*dG*dA*d[5mC]*d[5mC]*dA*dA*dA*dG*dA*eG*eT*eT*eT*eG) [compound 771530] 16

Moving on to the next substance: 771730 (antisense eA*eA*eT*eG*e[5mC]*d[5mC]*d[5mC]*d[5mC]*d[5mC]*dG*dG*d[5mC]*d[5mC]*dA*d[5mC]*eA*eG*e[5mC]*eA*eG) [compound 771730] 27

Moving on to the next substance: 771808 (antisense e[5mC]*e[5mC]*e[5mC]*e[5mC]*eA*dA*dA*dG*dT*d[5mC]*d[5mC]*dA*d[5mC]*dG*d[5mC]*eT*e[5mC]*eA*eT*eG) [compound 771808] 32

Moving on to the next substance: 771776 (antisense e[5mC]*eT*e[5mC]*eA*eG*d[5mC]*dA*dA*dG*d[5mC]*dT*d[5mC]*dA*dG*dT*eT*e[5mC]*e[5mC]*eT*eG) [compound 771776] 38

Moving on to the next substance: 771784 (antisense eT*eA*eA*eA*eT*d[5mC]*dA*dA*dG*dA*dG*d[5mC]*dT*dG*dA*eA*eA*eT*eT*e[5mC]) [compound 771784] 0

Moving on to the next substance: 771576 (antisense eG*eG*eG*e[5mC]*eA*dG*dG*dA*dG*dA*dG*dA*d[5mC]*dA*d[5mC]*e[5mC]*eG*e[5mC]*eT*eT) [compound 771576] 28

Moving on to the next substance: 771441 (e[5mC]*eG*eA*eG*eG*dG*d[5mC]*dG*dG*d[5mC]*dT*dG*d[5mC]*dG*d[5mC]*eA*eG*eG*e[5mC]*eT; antisense) [compound 771441] 10

From: patent US10517889B2
